System: Liver microsome
Assay: Half life in Sprague-Dawley rat liver microsomes at 1 uM by reversed phase LC/MS analysis
Type: ADME
Quick reference for t1/2 among some molecules
readoutKind: t1/2 (min)

> print(dat)
                                   molecule     systemtested  readoutkind  unitssymbol  testresult
1                Cc1ccc2c(Cl)cc(Cl)c(O)c2n1  Liver microsome         t1/2          min        38.6
2               Oc1c(CNc2ccccn2)ccc2cccnc12  Liver microsome         t1/2          min        36.8
3  COc1ccc(C(Nc2ccccn2)c2ccc3ccc(C)nc3c2O)cc1 (centres undefined)  Liver microsome         t1/2          min         8.8
4  Cc1ccnc(NC(c2ccc([N+](=O)[O-])cc2)c2ccc3ccc(C)nc3c2O)c1 (centres undefined)  Liver microsome         t1/2          min        20.3
5  COc1ccc(C(Nc2ccccn2)c2ccc3cccnc3c2O)cc1 (centres undefined)  Liver microsome         t1/2          min        11.3
6                   Oc1c(Cl)cc(Cl)c2cccnc12  Liver microsome         t1/2          min          55
7  Oc1c(C(Nc2ccccn2)c2ccccc2)ccc2cccnc12 (centres undefined)  Liver microsome         t1/2          min         8.6
8                    Oc1c(I)cc(Cl)c2cccnc12  Liver microsome         t1/2          min        76.9
9  Cc1ccnc(NC(c2ccc([N+](=O)[O-])cc2)c2ccc3cccnc3c2O)c1 (centres undefined)  Liver microsome         t1/2          min        42.2

====

Each entry below lists one item and its recorded t1/2 value.
Test system: Plasma
Assay: Half life in human plasma at 1 uM by LC-MS/MS analysis
Format: ADME, cell-free
readoutKind: t1/2 (h)

> print(dat)
                                   compound  readoutkind  testresult
1  COc1ccc(C(Nc2ccccn2)c2ccc3ccc(C)nc3c2O)cc1 (stereo not drawn)         t1/2        10.7
2  COc1ccc(C(Nc2ccccn2)c2ccc3cccnc3c2O)cc1 (stereo not drawn)         t1/2         6.1
3  Oc1c(C(Nc2ccccn2)c2ccccc2)ccc2cccnc12 (stereo not drawn)         t1/2        11.4

====

System: Liver microsome
Assay: Drug metabolism in human liver microsomes assessed as metabolic rate at 1 uM by reversed phase LC/MS analysis
Type: ADME
Item-by-item account of Drug metabolism
readoutKind: Drug metabolism (µM/min/mg)

> print(dat)
                                   compound  unitssymbol  testresult
1  COc1ccc(C(Nc2ccccn2)c2ccc3cccnc3c2O)cc1 (stereo unspecified)    µM/min/mg       0.242
2  Oc1c(C(Nc2ccccn2)c2ccccc2)ccc2cccnc12 (stereo unspecified)    µM/min/mg       0.186
3                Cc1ccc2c(Cl)cc(Cl)c(O)c2n1    µM/min/mg        0.19
4  Cc1ccnc(NC(c2ccc([N+](=O)[O-])cc2)c2ccc3ccc(C)nc3c2O)c1 (stereo unspecified)    µM/min/mg       0.047
5  COc1ccc(C(Nc2ccccn2)c2ccc3ccc(C)nc3c2O)cc1 (stereo unspecified)    µM/min/mg       0.324
6               Oc1c(CNc2ccccn2)ccc2cccnc12    µM/min/mg       0.203
